Origin of measurements: patent US20250195521A1

molecular target: NRAS G12C binding to BRAF RBD (Homo sapiens (Human), UniProt P01111+P62937, G12C); experiment: Ras-Raf disruption/FRET/MOA assay, NRAS G12C
Sequence (P01111 whole entry G12C): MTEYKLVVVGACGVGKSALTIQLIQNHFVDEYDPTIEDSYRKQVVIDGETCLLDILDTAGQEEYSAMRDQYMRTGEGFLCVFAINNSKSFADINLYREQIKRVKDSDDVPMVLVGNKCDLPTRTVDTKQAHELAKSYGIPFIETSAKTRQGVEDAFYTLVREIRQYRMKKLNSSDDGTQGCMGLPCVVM
Sequence (P62937 whole entry): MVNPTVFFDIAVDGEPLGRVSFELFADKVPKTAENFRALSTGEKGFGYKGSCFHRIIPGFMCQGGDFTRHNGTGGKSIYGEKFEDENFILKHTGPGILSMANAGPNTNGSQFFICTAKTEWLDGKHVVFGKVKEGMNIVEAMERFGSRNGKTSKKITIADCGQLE

# CHEMICAL_STRUCTURE, IC50
data = [
    ("CCn1c(-c2cccnc2[C@H](C)OC)c2c3cc(ccc31)-c1cccc(c1)C[C@H](NC(=O)[C@H](C(C)C)N1CC[C@]3(CCN(C(=O)C#CC(C)(C)N4CCC4)C3)C1=O)C(=O)N1CCC[C@H](N1)C(=O)OCC(C)(C)C2", "< 10 nM"),
    ("C/C=C/S(=O)(=O)N1CC[C@H](C(=O)N(C)[C@H](C(=O)N[C@H]2Cc3cc(O)cc(c3)-c3ccc4c(c3)c(c(-c3ccncc3[C@H](C)OC)n4CC)CC(C)(C)COC(=O)[C@@H]3CCCN(N3)C2=O)C(C)C)C1", "100 to 1000 nM"),
    ("CCn1c(-c2cnccc2COC)c2c3cc(ccc31)-c1cc(O)cc(c1)C[C@H](NC(=O)[C@H](C(C)C)N(C)C(=O)[C@H]1CCN(C(=O)C#CCN(C)C)C1)C(=O)N1CCC[C@H](N1)C(=O)OCC(C)(C)C2", "< 10 nM"),
    ("CCn1c(-c2cccnc2[C@H](C)OC)c2c3cc(ccc31)-c1cc(cc(C(F)F)c1)C[C@H](NC(=O)[C@@H](COC1CN(C(=O)C#CC(C)(C)N(C)C)C1)C(C)C)C(=O)N1CCC[C@H](N1)C(=O)OCC(C)(C)C2", "100 to 1000 nM"),
]

---

target: KRAS G12D (Homo sapiens (Human), UniProt P01116+P62937, G12D); assay: Ras-Raf disruption/FRET/MOA assay (BRAF RBD, Cyclophilin A); format: biochemical; details: read-out: KRAS G12D FRET IC50
Sequence (P01116 other isoform, or with tags, fused parts or gaps G12D, one chain of several): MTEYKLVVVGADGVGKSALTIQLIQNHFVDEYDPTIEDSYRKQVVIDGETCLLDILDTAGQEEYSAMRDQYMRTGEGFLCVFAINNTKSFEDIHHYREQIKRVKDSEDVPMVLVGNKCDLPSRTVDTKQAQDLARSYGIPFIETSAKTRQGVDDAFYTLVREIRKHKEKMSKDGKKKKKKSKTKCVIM

# COMPOUND, IC50
rows = [
    ("CCn1c(-c2cccnc2[C@H](C)OC)c2c3cc(ccc31)-c1cc(O)cc(c1)C[C@H](NC(=O)[C@H](C(C)C)N(C)C(=O)C13CCC(CO1)C3)C(=O)N1CCC[C@H](N1)C(=O)OCC(C)(C)C2 [Compound A410]", "100 to 1000 nM"),
    ("CCn1c(-c2cc(N3CCN(C)CC3)cnc2[C@H](C)OC)c2c3cc(ccc31)-c1csc(n1)C[C@H](NC(=O)[C@H](C(C)C)N(C)C(=O)N1CC(OC)C1)C(=O)N1CCC[C@H](N1)C(=O)OCC(C)(C)C2 [Compound A466]", "100 to 1000 nM"),
    ("CCn1c(-c2cccnc2[C@H](C)OC)c2c3cc(ccc31)C1=C[C@@H](O)CN(C1)C[C@H](NC(=O)[C@H]1[C@H](C)[C@@H]1C)C(=O)N1CCC[C@H](N1)C(=O)OCC(C)(C)C2 [Compound A441]", "100 to 1000 nM"),
    ("CCn1c(-c2cccnc2[C@H](C)OC)c2c3cc(ccc31)-c1csc(n1)C[C@H](NC(=O)[C@H](C(C)C)N(C)C(=O)N1C[C@@H](C)N(C)C[C@@H]1C)C(=O)N1CCC[C@H](N1)C(=O)OCC(C)(C)C2 [Compound A292]", "1000 to 10000 nM"),
    ("CCn1c(-c2cccnc2[C@H](C)OC)c2c3cc(ccc31)-c1cc(O)cc(c1)C[C@H](NC(=O)[C@H](C(C)C)N(C)C(=O)[C@H]1CCN(C(=O)[C@@]3(C)CCCN3C)C1)C(=O)N1CCC[C@H](N1)C(=O)OCC(C)(C)C2 [Compound A379]", "10 to 100 nM"),
    ("CCn1c(-c2cnccc2COC)c2c3cc(ccc31)-c1cc(O)cc(c1)C[C@H](NC(=O)[C@@H](NC(=O)c1ncco1)C(C)C)C(=O)N1CCC[C@H](N1)C(=O)OCC(C)(C)C2 [Compound A56]", "> 10000 nM"),
    ("CCn1c(-c2cccnc2[C@H](C)OC)c2c3cc(ccc31)-c1csc(n1)C[C@H](NC(=O)[C@H](C(C)C)N(C)C(=O)N1CCCC3(CN(C)C3)C1)C(=O)N1CCC[C@H](N1)C(=O)OCC(C)(C)C2 [Compound A589]", "100 to 1000 nM"),
    ("CCn1c(-c2cnccc2COC)c2c3cc(ccc31)-c1cc(O)cc(c1)C[C@H](NC(=O)[C@H](C(C)C)N(C)C(=O)[C@H]1CN(C(C)=O)C[C@H]1C(F)(F)F)C(=O)N1CCC[C@H](N1)C(=O)OCC(C)(C)C2 [Compound A215]", "1000 to 10000 nM"),
    ("CCn1c(-c2cccnc2[C@H](C)OC)c2c3cc(ccc31)-c1cc(O)cc(c1)C[C@H](NC(=O)[C@H](C(C)C)N(C)C(=O)[C@@H]1CN(C(=O)OC)C[C@@H]1C)C(=O)N1CCC[C@H](N1)C(=O)OCC(C)(C)C2 [Compound A325]", "10 to 100 nM"),
    ("CCn1c(-c2cccnc2[C@H](C)OC)c2c3cc(ccc31)C1=C[C@@H](O)CN(C1)C[C@H](NC(=O)[C@H]1[C@H](C)[C@@H]1C)C(=O)N1CCC[C@H](N1)C(=O)OCC(C)(C)C2 [Compound A424]", "100 to 1000 nM"),
    ("CCn1c(-c2cccnc2[C@H](C)OC)c2c3cc(ccc31)-c1csc(n1)C[C@H](NC(=O)[C@H](C(C)C)N(C)C(=O)N1CC(O)C1)C(=O)N1CCC[C@H](N1)C(=O)OCC(C)(C)C2 [Compound A358]", "100 to 1000 nM"),
    ("CCN(C)C(=O)N(C)[C@H](C(=O)N[C@H]1Cc2nc(cs2)-c2ccc3c(c2)c(c(-c2cccnc2[C@H](C)OC)n3CC)CC(C)(C)COC(=O)[C@@H]2CCCN(N2)C1=O)C(C)C [Compound A336]", "100 to 1000 nM"),
    ("CCn1c(-c2cccnc2[C@H](C)OC)c2c3cc(ccc31)-c1csc(n1)C[C@H](NC(=O)[C@H](C(C)C)N(C)C(=O)N1CCC1C(=O)O)C(=O)N1CCC[C@H](N1)C(=O)OCC(C)(C)C2 (some centres unmarked) [Compound A271]", "> 10000 nM"),
    ("CCn1c(-c2cccnc2[C@H](C)OC)c2c3cc(ccc31)-c1cccc(c1)C[C@H](NC(=O)[C@H](C(C)C)N(C)C(=O)[C@@H]1OCC[C@@H]1c1ccccc1)C(=O)N1CCC[C@H](N1)C(=O)OCC(C)(C)C2 [Compound A586]", "100 to 1000 nM"),
    ("CCn1c(-c2cccnc2[C@H](C)OC)c2c3cc(ccc31)-c1cccc(c1)C[C@H](NC(=O)[C@H](C(C)C)N(C)C(=O)C1COC1)C(=O)N1CCC[C@H](N1)C(=O)OCC(C)(C)C2 [Compound A246]", "> 10000 nM"),
    ("CCn1c(-c2cccnc2[C@H](C)OC)c2c3cc(ccc31)-c1csc(n1)C[C@H](NC(=O)[C@H](C(C)C)N(C)C(=O)N1CCN3C(=O)CN(C)C[C@@H]3C1)C(=O)N1CCC[C@H](N1)C(=O)OCC(C)(C)C2 [Compound A536]", "100 to 1000 nM"),
    ("CCn1c(-c2cccnc2[C@H](C)OC)c2c3cc(ccc31)-c1csc(n1)C[C@H](NC(=O)[C@H](C(C)C)N(C)C(=O)N1C[C@@H]3[C@@H](C1)OCCN3C)C(=O)N1CCC[C@H](N1)C(=O)OCC(C)(C)C2 [Compound A472]", "1000 to 10000 nM"),
]

---

target: NRAS G12C (Homo sapiens (Human), UniProt P01111+P62937, G12C); test: Ras-Raf disruption/FRET/MOA assay (BRAF RBD, Cyclophilin A); type: biochemical; conditions: read-out: NRAS G12C FRET data IC50
pIC50: −log10 of the molar value.
REPORTED_ENDPOINT: pIC50

# MOLECULE, MEASURED
data = [
    ("CCn1c(-c2cccnc2[C@H](C)OC)c2c3cc(ccc31)-c1csc(n1)C[C@H](NC(=O)[C@H](C(C)C)N(C)C(=O)N1CCN3C(=O)CN(C)C[C@H]3C1)C(=O)N1CCC[C@H](N1)C(=O)OCC(C)(C)C2 [Compound A537]", "7.00 to 8.00"),
    ("CCn1c(-c2cccnc2[C@H](C)OC)c2c3cc(ccc31)-c1csc(n1)C[C@H](NC(=O)[C@H](C(C)C)N(C)C(=O)N1C[C@H]3CN(C)CC[C@H]31)C(=O)N1CCC[C@H](N1)C(=O)OCC(C)(C)C2 [Compound A462]", "6.00 to 7.00"),
    ("CCn1c(-c2cc(N3CCN(C)CC3)cnc2[C@H](C)OC)c2c3cc(ccc31)-c1csc(n1)C[C@H](NC(=O)[C@H](C(C)C)N(C)C(=O)[C@@H]1CCCS1(=O)=O)C(=O)N1CCC[C@H](N1)C(=O)OCC(C)(C)C2 [Compound A440]", "6.00 to 7.00"),
    ("CCn1c(-c2cccnc2[C@H](C)OC)c2c3cc(ccc31)-c1cccc(c1)C[C@H](NC(=O)[C@H](C(C)C)N(C)C(=O)[C@H]1OCC[C@H]1c1ccccc1)C(=O)N1CCC[C@H](N1)C(=O)OCC(C)(C)C2 [Compound A429]", "5.00 to 6.00"),
    ("CCn1c(-c2cccnc2[C@H](C)OC)c2c3cc(ccc31)-c1cc(O)cc(c1)C[C@H](NC(=O)[C@H](C(C)C)N(C)C(=O)[C@H]1CCCC[C@@H]1N)C(=O)N1CCC[C@H](N1)C(=O)OCC(C)(C)C2 [Compound A394]", "6.00 to 7.00"),
    ("CCn1c(-c2cccnc2[C@H](C)OC)c2c3cc(ccc31)-c1cc(O)cc(c1)C[C@H](NC(=O)[C@H](C(C)C)N(C)C(=O)[C@]1(F)CCN(C(=O)OC)C1)C(=O)N1CCC[C@H](N1)C(=O)OCC(C)(C)C2 [Compound A616]", "7.00 to 8.00"),
    ("CCn1c(-c2cccnc2[C@H](C)OC)c2c3cc(ccc31)-c1csc(n1)C[C@H](NC(=O)[C@H](C(C)C)N(C)C(=O)N1CC([C@@H](CO)OC)C1)C(=O)N1CCC[C@H](N1)C(=O)OCC(C)(C)C2 [Compound A514]", "7.00 to 8.00"),
    ("CCn1c(-c2cccnc2[C@H](C)OC)c2c3cc(ccc31)-c1csc(n1)C[C@H](NC(=O)[C@H](C(C)C)N(C)C(=O)N1C[C@@H]3[C@@H](C1)OCCN3C)C(=O)N1CCC[C@H](N1)C(=O)OCC(C)(C)C2 [Compound A472]", "6.00 to 7.00"),
    ("CCn1c(-c2cnccc2COC)c2c3cc(ccc31)-c1cc(O)cc(c1)C[C@H](NC(=O)[C@H](C(C)C)N(C)C(=O)O[C@@H]1CCOC1)C(=O)N1CCC[C@H](N1)C(=O)OCC(C)(C)C2 [Compound A82]", "5.00 to 6.00"),
    ("CCn1c(-c2cccnc2[C@H](C)OC)c2c3cc(ccc31)-c1cc(O)cc(c1)C[C@H](NC(=O)[C@H](C(C)C)N(C)C(=O)C1CC13CNC3)C(=O)N1CCC[C@H](N1)C(=O)OCC(C)(C)C2 (some centres unmarked) [Compound A140]", "7.00 to 8.00"),
    ("CCn1c(-c2cccnc2[C@H](C)OC)c2c3cc(ccc31)-c1cc(O)cc(c1)C[C@H](NC(=O)[C@H](C(C)C)N(C)C(=O)C1CCC3(CCOC3)O1)C(=O)N1CCC[C@H](N1)C(=O)OCC(C)(C)C2 (some centres unmarked) [Compound A409]", "7.00 to 8.00"),
    ("CCn1c(-c2cccnc2[C@H](C)OC)c2c3cc(ccc31)-c1csc(n1)C[C@H](NC(=O)[C@H](C(C)C)N(CCc1ccncc1)C1CC1)C(=O)N1CCC[C@H](N1)C(=O)OCC(C)(C)C2 [Compound A556]", "6.00 to 7.00"),
    ("CCn1c(-c2cnccc2COC)c2c3cc(ccc31)-c1cc(O)cc(c1)C[C@H](NC(=O)[C@H](C(C)C)N(C)c1ncco1)C(=O)N1CCC[C@H](N1)C(=O)OCC(C)(C)C2 [Compound A52]", "5.00 to 6.00"),
    ("CCn1c(-c2cccnc2[C@H](C)OC)c2c3cc(ccc31)-c1cc(O)cc(c1)C[C@H](NC(=O)[C@H](C(C)C)N(C)C(=O)[C@H]1CCN(C(=O)C(C)(C)NC)C1)C(=O)N1CCC[C@H](N1)C(=O)OCC(C)(C)C2 [Compound A381]", "7.00 to 8.00"),
    ("CCn1c(-c2cccnc2[C@H](C)OC)c2c3cc(ccc31)-c1csc(n1)C[C@H](NC(=O)[C@H](C(C)C)N(C)C(=O)N(C)CCc1ccncc1)C(=O)N1CCC[C@H](N1)C(=O)OCC(C)(C)C2 [Compound A557]", "7.00 to 8.00"),
    ("CCn1c(-c2cccnc2[C@H](C)OC)c2c3cc(ccc31)-c1csc(n1)C[C@H](NC(=O)[C@H](C(C)C)N(C)C(=O)N1[C@H](C)COC[C@@H]1C)C(=O)N1CCC[C@H](N1)C(=O)OCC(C)(C)C2 [Compound A276]", "6.00 to 7.00"),
    ("CCn1c(-c2cnccc2COC)c2c3cc(ccc31)-c1cc(O)cc(c1)C[C@H](NC(=O)C(C)C1CCOCC1)C(=O)N1CCC[C@H](N1)C(=O)OCC(C)(C)C2 (some centres unmarked) [Compound A258]", "5.00 to 6.00"),
]
